System: MILI (PIWIL2) piRISC loaded with L1MC piRNA (26 nt);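 further: 1 nM active piRISC with 0.1 nM target library at 33 °C single turnover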
Assay: pre-steady-state target cleavage rate (min^-1); guide: L1MC piRNA 5'p-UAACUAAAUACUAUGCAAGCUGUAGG; higher = faster piRNA-guided slicing of the target
Details: auxiliary factor: 500 nM mouse GTSF1
pre-steady-state target cleavage rate of 0.06 or higher: class 1. Under 0.06: class 0.

Use these answered entries as a reference point.
UCCUCCUUCAGCUUCCAUAGUAUUUAGUUA; class 0
UCCUCCUACAGCUUGGUUAGUAUUUUCAAA; class 0
UCCUCCUACUCGUUGCAUAGUAUUUAGUAA; class 1
UCCUGGAUCAGCUUGCUAUGUAUUUACAAA; class 0
UCCUCCAACAGCAUGCAUAGUAUUUAGUUA; class 1

Does UCCUGGAUCAGCUUGCAUAGUAUGUUAGUUA have a reported pre-steady-state target cleavage rate of at least 0.06? class 1

Same thing, different sequence: UCCUGGUACAGCUUGCAUACUAUUUAGUUA class 1

# repeat for UCCUGGAACAGCUUGCAUUGUAUUUACAAA class 0

UCCUGGAUGUCGAAGCAUAGUAUUUGAGUUA , same question. class 0

Request: UCCUGGAUGUGCUUGCAUAGUAUGUUAGUUA class 1

Now try UCCUGGAUGAGCUUGCAUUGUUUUUAGUUA . class 0

Now try UCCUGGAACAGCAUGCAUAGUAUAUAGUUA . class 1

---

Tested on: MILI (PIWIL2) piRISC loaded with L1MC piRNA (26 nt);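 further: 1 nM active piRISC with 0.1 nM target library at 33 °C single turnover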
Experiment: pre-steady-state target cleavage rate (min^-1); guide: L1MC piRNA 5'p-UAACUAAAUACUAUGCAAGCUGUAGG; higher = faster piRNA-guided slicing of the target
Settings: auxiliary factor: 500 nM mouse GTSF1
Label scheme for pre-steady-state target cleavage rate: lower than 0.05 is 0.0, 0.05 and above is 1.0.

UCCUGGUACACCUUGCAUAGUAUUUACAAA; 0.0

Check if pre-steady-state target cleavage rate >= 0.05 (inclusive). Item: UCCUGGAUGAGGAUGCAUAGUAUUUAGAAA 0.0

Likewise for UCCUGGAUGUCCAUGCAUAGAAUUUAGUUA ? 0.0

Subsequent entry: UCCUGGUACAGCUUGCAUUGUAUUUAGAUA 1.0

---

Provide the recorded pre-steady-state target cleavage rate for the entries that follow.
System: EfPiwi piRISC loaded with L1MC piRNA (26 nt)
Assay: pre-steady-state target cleavage rate (min^-1); auxiliary factor: 500 nM Ephydatia muelleri Gtsf1; guide: L1MC piRNA 5'p-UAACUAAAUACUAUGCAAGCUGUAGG; MIWI and MILI are mouse PIWI proteins and EfPiwi is from a freshwater sponge; tags in brackets are library labels; higher = faster piRNA-guided slicing of the target

Worked cases, pre-steady-state target cleavage rate given:
UCCUCCUAGUGCUUGCAUAGUAUUUAGUAA; 0.00468
UCCUGGAUGUGCAAGCAUAGUAUUUAGUUA; 0.00427
UCCUCCUAGAGCUUGCAUUGUAUUUAGUUA; 0.018
UCCUCCUACAGCUUGCAUAGUAUUAAGAUA; 0.00411
UCCUGCUACAGCUAGCAUAGUAUAUAGUUA; 0.00485

Hi team, please reply with pre-steady-state target cleavage rate for each item in this list.
1. UCCUGCUACAGCUUGCAUAGUUUUUAGUUA
2. UCCUCCUAGAGCUUGCAUAGUUUUUAGUUA

0.00538
0.00428
